# Tested on: Staphylococcus aureus X400
# EXPERIMENT DESCRIPTION: MIC, standard agar-dilution assay (Table II)
# Assay type: cell-based
# Set-up: unit not given here
# CONDITIONS: Staphylococcus aureus X400, methicillin-resistant strain
Listed here: items and their measured minimal inhibitory concentration (MIC).
Reply with just the number.

COMPOUND	minimal inhibitory concentration (MIC)
CCC1OC(=O)CC(O)C(C)C(OC2OC(C)C(O)C(N(C)C)C2O)C(CC=O)CC(C)C(=O)C=CC(C)=CC1COC(=O)Cc1ccc([N+](=O)[O-])cc1 (stereo not drawn)	0.125
CCC1OC(=O)CC(O)C(C)C(OC2OC(C)C(O)C(N(C)C)C2OC(C)=O)C(CC=O)CC(C)C(=O)C=CC(C)=CC1COC(=O)C(C)(C)C (stereo not drawn)	0.25

Simply: CCC1OC(=O)CC(O)C(C)C(OC2OC(C)C(OC(C)=O)C(N(C)C)C2OC(C)=O)C(CC=O)CC(C)C(=O)C=CC(C)=CC1COC(=O)[C@H](O)c1ccccc1 (stereo partly drawn) , Staphylococcus aureus X400, minimal inhibitory concentration (MIC) = 0.5
